Reference source for all entries: the supplement of paper PMC11208160

assay: recombinant barcode read abundance after kanamycin selection (control-corrected) (log10(CPM+1)); higher = more efficient recombination; sequences stand for … in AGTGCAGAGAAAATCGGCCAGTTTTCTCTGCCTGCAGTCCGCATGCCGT…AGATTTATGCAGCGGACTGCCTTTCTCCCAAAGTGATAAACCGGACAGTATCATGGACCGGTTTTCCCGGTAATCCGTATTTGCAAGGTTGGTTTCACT; site = the 11-nt target;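 also: IS621 recombinase and bridge RNA in Escherichia coli cells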
Outcome: label 1 for recombinant barcode read abundance (log10) of at least 0.2; label 0 for anything lower.

{"inputSequence": "TTGCAAACTTGGGTTCTAACCTGTTGCCT (site TTGCTAACTAG)", "qualitativeLabel": "label 0"}
{"inputSequence": "GATCAACCTTGGGTTCTAACCTGTTGCCT (site GTTCAACCTAG)", "qualitativeLabel": "label 1"}
{"inputSequence": "AGAGGGACTTGGGTTCTAACCTGTTGCCT (site AGAGGGACTAG)", "qualitativeLabel": "label 1"}
{"inputSequence": "CATCGGACTTGGGTTCTAACCTGTTGCAA (site GGCTAACCTAG)", "qualitativeLabel": "label 1"}
{"inputSequence": "CTTCGTCCTTGGGTTCTAACCTGTTGCTT (site CTTCGTCCTAC)", "qualitativeLabel": "label 1"}
{"inputSequence": "GATATAGCTTGGGTTCTAACCTGTTGCCT (site GATATAGCTAG)", "qualitativeLabel": "label 1"}
{"inputSequence": "CGTGCGACTTGGGTTCTAACCTGTTGCAT (site CGTACGACTAT)", "qualitativeLabel": "label 0"}
{"inputSequence": "GAGCGAGCTTGGGTTCTAACCTGTTGCGG (site GAGCGAGCTCT)", "qualitativeLabel": "label 1"}
{"inputSequence": "GGCTTCCCTTGGGTTCTAACCTGTTGCCT (site GGCGTCCCTAG)", "qualitativeLabel": "label 0"}
{"inputSequence": "CAATTGTCTTGGGTTCTAACCTGTTGCGT (site TAATTGTCTAC)", "qualitativeLabel": "label 0"}
